experimentalProtocol: Total clearance in Sprague-Dawley rat at 1 mg/kg,iv administration measured upto 9 days by LC-MS/MS analysis
Type: ADME, organism-based
conditionLabel: in vivo, time < 9 day
Bridge positions count the residues as written; N and C are the ends. Square brackets hold non-standard residues; d marks the D form. Peptide text beside a SMILES is read from it. S5 = C=CCCC[C@](C)(N)C(=O)O
observedProperty: clearance
Write the numeric value and append its unit.

If you can, please state the reported clearance value of CC(=O)NCC(=O)N[C@@]1(C)CCC/C=C\CCC[C@@](C)(C(=O)N[C@@H](Cc2ccc(O)cc2)C(=O)N[C@@H](CC(C)C)C(=O)N[C@@]2(C)CCC/C=C\CCC[C@@](C)(C(=O)N[C@@H](Cc3ccc(O)cc3)C(=O)N[C@@H](Cc3c[nH]c4ccccc34)C(N)=O)NC(=O)[C@H](CC(C)C)NC(=O)[C@H](CC(C)C)NC(=O)[C@H](CC(N)=O)NC2=O)NC(=O)[C@H](CC(C)C)NC(=O)[C@H](C)NC(=O)[C@H](CCC(=O)O)NC1=O (Ac-G[S5]EAL[S5]YL[S5]NLL[S5]YW-NH2; staple (Z) 2-6, 9-13) . 0.31 mL/min/kg

====

experimentalProtocol: Cytotoxicity against human MT2 cells
Type: toxicity, cell-based
Bridge positions count the residues as written; N and C are the ends. Square brackets hold non-standard residues; d marks the D form. Peptide text beside a SMILES is read from it. S5 = C=CCCC[C@](C)(N)C(=O)O
observedProperty: CC50 (nM)
Give the value in nM but do not write nM after it.

If you can, please state the reported CC50 value of CC(=O)NCC(=O)N[C@@H](Cc1c[nH]c2ccccc12)C(=O)N[C@@H](CCC(=O)O)C(=O)N[C@@]1(C)CCC/C=C\CCC[C@@](C)(C(=O)N[C@@H](Cc2c[nH]c3ccccc23)C(=O)N[C@@H](CC(N)=O)C(=O)N[C@@H](CC(C)C)C(=O)N[C@@H](CC(C)C)C(=O)N[C@@H](CCC(N)=O)C(=O)N[C@@H](Cc2ccc(O)cc2)C(=O)N[C@@H](Cc2c[nH]c3ccccc23)C(N)=O)NC(=O)[C@H](Cc2ccc(O)cc2)NC(=O)[C@H](CCCCN)NC(=O)[C@H](CC(C)C)NC1=O (Ac-GWE[S5]LKY[S5]WNLLQYW-NH2; staple (Z) 4-8) . 2310

====

experimentalProtocol: AUClast in Sprague-Dawley rat at 1 mg/kg,iv administration measured upto 9 days by LC-MS/MS analysis
Format: ADME, organism-based
conditionLabel: in vivo, time < 9 day
Bridge positions count the residues as written; N and C are the ends. Square brackets hold non-standard residues; d marks the D form. Peptide text beside a SMILES is read from it. S5 = C=CCCC[C@](C)(N)C(=O)O
observedProperty: AUC(0-t) at 216 h
Write the numeric value and append its unit.

If you can, please state the reported AUC(0-t) at 216 h value of CC(=O)NCC(=O)N[C@@]1(C)CCC/C=C\CCC[C@@](C)(C(=O)N[C@@H](Cc2ccc(O)cc2)C(=O)N[C@@H](CC(C)C)C(=O)N[C@@]2(C)CCC/C=C\CCC[C@@](C)(C(=O)N[C@@H](Cc3ccc(O)cc3)C(=O)N[C@@H](Cc3c[nH]c4ccccc34)C(N)=O)NC(=O)[C@H](CC(C)C)NC(=O)[C@H](CC(C)C)NC(=O)[C@H](CC(N)=O)NC2=O)NC(=O)[C@H](CC(C)C)NC(=O)[C@H](C)NC(=O)[C@H](CCC(=O)O)NC1=O (Ac-G[S5]EAL[S5]YL[S5]NLL[S5]YW-NH2; staple (Z) 2-6, 9-13) . 40400 ng·h/mL

====

experimentalProtocol: Elimination half life in Sprague-Dawley rat at 10 mg/kg,iv administration measured upto 9 days by LC-MS/MS analysis
Format: ADME, organism-based
conditionLabel: in vivo, time < 9 day, read-out: beta t1/2
Bridge positions count the residues as written; N and C are the ends. Square brackets hold non-standard residues; d marks the D form. Peptide text beside a SMILES is read from it. S5 = C=CCCC[C@](C)(N)C(=O)O
observedProperty: half-life

If you can, please state the reported half-life value of CC(=O)NCC(=O)N[C@@]1(C)CCC/C=C\CCC[C@@](C)(C(=O)N[C@@H](Cc2ccc(O)cc2)C(=O)N[C@@H](CC(C)C)C(=O)N[C@@]2(C)CCC/C=C\CCC[C@@](C)(C(=O)N[C@@H](Cc3ccc(O)cc3)C(=O)N[C@@H](Cc3c[nH]c4ccccc34)C(N)=O)NC(=O)[C@H](CC(C)C)NC(=O)[C@H](CC(C)C)NC(=O)[C@H](CC(N)=O)NC2=O)NC(=O)[C@H](CC(C)C)NC(=O)[C@H](C)NC(=O)[C@H](CCC(=O)O)NC1=O (Ac-G[S5]EAL[S5]YL[S5]NLL[S5]YW-NH2; staple (Z) 2-6, 9-13) . > 70 h

====

testSystem: chymotrypsin (Homo sapiens, UniProt P17538+P40313+Q6GPI1+Q99895)
experimentalProtocol: Proteolytic stability assessed as Chymotrypsin (unknown origin) mediated compound degradation by measuring parent compound remaining incubated for 2 hrs by LC-MS/MS analysis
Format: ADME, protein assay
conditionLabel: read-out: Stability
observedProperty: remaining at 2 h (%)
Give the value in % but do not write % after it.

// fetch chymotrypsin (Homo sapiens, UniProt P17538+P40313+Q6GPI1+Q99895) remaining at 2 h for H-GWEALKYLWNLLQYW-OH 32.9

====

experimentalProtocol: Selectivity index, ratio of CC50 for cytotoxicity against human MT2 cells to IC50 for antiviral activity against HIV-1 IIIB infected in human MT2 cells
Assay type: toxicity, cell-based
conditionLabel: read-out: Ratio CC50/IC50
Bridge positions count the residues as written; N and C are the ends. Square brackets hold non-standard residues; d marks the D form. Peptide text beside a SMILES is read from it. S5 = C=CCCC[C@](C)(N)C(=O)O
observedProperty: selectivity ratio
Give the figure by itself; no unit, no explanation.

If you can, please state the reported selectivity ratio value of CC(=O)N[C@@]1(C)CCC/C=C\CCC[C@@](C)(C(=O)N[C@@H](CCCCN)C(=O)N[C@@H](Cc2ccc(O)cc2)C(=O)N[C@@H](CC(C)C)C(=O)N[C@@H](Cc2c[nH]c3ccccc23)C(=O)N[C@@H](CC(N)=O)C(=O)N[C@@H](CC(C)C)C(=O)N[C@@H](CC(C)C)C(=O)N[C@@H](CCC(N)=O)C(=O)N[C@@H](Cc2ccc(O)cc2)C(=O)N[C@@H](Cc2c[nH]c3ccccc23)C(N)=O)NC(=O)[C@H](C)NC(=O)[C@H](CCC(=O)O)NC(=O)[C@H](Cc2c[nH]c3ccccc23)NC1=O (Ac-[S5]WEA[S5]KYLWNLLQYW-NH2; staple (Z) 1-5) . 78.5

If you can, please state the reported selectivity ratio value of CC(=O)NCC(=O)N[C@@H](Cc1c[nH]c2ccccc12)C(=O)N[C@@H](CCC(=O)O)C(=O)N[C@@H](C)C(=O)N[C@@H](CC(C)C)C(=O)N[C@@H](CCCCN)C(=O)N[C@@H](Cc1ccc(O)cc1)C(=O)N[C@@H](CC(C)C)C(=O)N[C@@]1(C)CCC/C=C\CCC[C@@](C)(C(=O)N[C@@H](Cc2ccc(O)cc2)C(=O)N[C@@H](Cc2c[nH]c3ccccc23)C(N)=O)NC(=O)[C@H](CC(C)C)NC(=O)[C@H](CC(C)C)NC(=O)[C@H](CC(N)=O)NC1=O (Ac-GWEALKYL[S5]NLL[S5]YW-NH2; staple (Z) 9-13) . 36.9

====

experimentalProtocol: Plasma protein binding in rat by LC-MS/MS analysis
Format: ADME, cell-free
conditionLabel: read-out: PPB (converted)
Bridge positions count the residues as written; N and C are the ends. Square brackets hold non-standard residues; d marks the D form. Peptide text beside a SMILES is read from it. S5 = C=CCCC[C@](C)(N)C(=O)O
observedProperty: fraction unbound
Give the figure by itself; no unit, no explanation.

If you can, please state the reported fraction unbound value of CC(=O)NCC(=O)N[C@@]1(C)CCC/C=C\CCC[C@@](C)(C(=O)N[C@@H](Cc2ccc(O)cc2)C(=O)N[C@@H](CC(C)C)C(=O)N[C@@]2(C)CCC/C=C\CCC[C@@](C)(C(=O)N[C@@H](Cc3ccc(O)cc3)C(=O)N[C@@H](Cc3c[nH]c4ccccc34)C(N)=O)NC(=O)[C@H](CC(C)C)NC(=O)[C@H](CC(C)C)NC(=O)[C@H](CC(N)=O)NC2=O)NC(=O)[C@H](CC(C)C)NC(=O)[C@H](C)NC(=O)[C@H](CCC(=O)O)NC1=O (Ac-G[S5]EAL[S5]YL[S5]NLL[S5]YW-NH2; staple (Z) 2-6, 9-13) . 0.153

====

experimentalProtocol: MRT in Sprague-Dawley rat at 1 mg/kg,iv administration measured upto 9 days by LC-MS/MS analysis
Format: ADME, organism-based
conditionLabel: in vivo, time < 9 day
Bridge positions count the residues as written; N and C are the ends. Square brackets hold non-standard residues; d marks the D form. Peptide text beside a SMILES is read from it. S5 = C=CCCC[C@](C)(N)C(=O)O
observedProperty: MRT
Write the numeric value and append its unit.

If you can, please state the reported MRT value of CC(=O)NCC(=O)N[C@@]1(C)CCC/C=C\CCC[C@@](C)(C(=O)N[C@@H](Cc2ccc(O)cc2)C(=O)N[C@@H](CC(C)C)C(=O)N[C@@]2(C)CCC/C=C\CCC[C@@](C)(C(=O)N[C@@H](Cc3ccc(O)cc3)C(=O)N[C@@H](Cc3c[nH]c4ccccc34)C(N)=O)NC(=O)[C@H](CC(C)C)NC(=O)[C@H](CC(C)C)NC(=O)[C@H](CC(N)=O)NC2=O)NC(=O)[C@H](CC(C)C)NC(=O)[C@H](C)NC(=O)[C@H](CCC(=O)O)NC1=O (Ac-G[S5]EAL[S5]YL[S5]NLL[S5]YW-NH2; staple (Z) 2-6, 9-13) . 71.1 h
